Target: HSD17B4 (Homo sapiens, UniProt P51659)
Construct: made in house
Sequence (P51659 1-736): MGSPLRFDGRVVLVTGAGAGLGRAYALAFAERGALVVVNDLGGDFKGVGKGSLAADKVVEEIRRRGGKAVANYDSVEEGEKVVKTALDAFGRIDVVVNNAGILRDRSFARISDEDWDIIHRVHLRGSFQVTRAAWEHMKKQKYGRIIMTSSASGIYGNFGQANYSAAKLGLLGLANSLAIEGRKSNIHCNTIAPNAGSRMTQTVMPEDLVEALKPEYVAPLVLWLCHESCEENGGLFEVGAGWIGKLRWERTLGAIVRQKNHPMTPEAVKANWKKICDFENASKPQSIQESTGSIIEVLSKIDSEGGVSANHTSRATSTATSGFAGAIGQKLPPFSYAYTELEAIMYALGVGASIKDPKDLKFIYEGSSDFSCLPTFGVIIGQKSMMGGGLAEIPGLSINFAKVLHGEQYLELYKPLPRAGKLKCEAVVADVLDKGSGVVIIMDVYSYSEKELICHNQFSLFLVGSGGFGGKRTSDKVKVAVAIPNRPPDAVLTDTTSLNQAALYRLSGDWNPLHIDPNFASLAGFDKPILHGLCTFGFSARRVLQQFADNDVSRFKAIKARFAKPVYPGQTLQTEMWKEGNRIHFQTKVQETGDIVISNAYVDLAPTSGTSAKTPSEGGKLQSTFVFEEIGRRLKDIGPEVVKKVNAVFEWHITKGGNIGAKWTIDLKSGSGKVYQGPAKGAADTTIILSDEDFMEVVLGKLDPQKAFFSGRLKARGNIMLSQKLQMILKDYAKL
Experiment: Steroid substrate panel against HSD17B family member B4
Type: biochemical
Conditions: substrate at 50 μM; estradiol set as 100%
Label 1 when Percent of Control (POC), B4 < 0.7%; otherwise -1.

compound	classification
C[C@]12CC[C@H]3[C@@H](CCC4=CC(=O)CC[C@@]43C)[C@@H]1CC[C@@H]2O	-1
C[C@]12CC[C@@H](O)C[C@H]1CC[C@@H]1[C@@H]2C(=O)C[C@]2(C)C(=O)CC[C@@H]12	1
C[C@]12CC[C@@H](O)C[C@@H]1CC[C@@H]1[C@@H]2CC[C@]2(C)C(=O)CC[C@@H]12	1
C[C@]12CC[C@@H](O)C[C@@H]1CC[C@@H]1[C@@H]2C(=O)C[C@]2(C)C(=O)CC[C@@H]12	1
C[C@]12CC[C@@H](O)C[C@@H]1CC[C@@H]1[C@@H]2CC[C@]2(C)C(=O)[C@H](O)C[C@@H]12 [16alpha-Hydroxyandrosterone]	1
CC(=O)OCC(=O)[C@H]1CC[C@H]2[C@@H]3CCC4=CC(=O)CC[C@]4(C)[C@H]3[C@@H](O)C[C@]12C [Corticosterone 21-acetate]	1
C[C@]12CC[C@@H](O)C[C@@H]1CC[C@@H]1[C@@H]2CC[C@]2(C)[C@@H](O)CC[C@@H]12	-1
C[C@]12CC[C@H](O)C[C@@H]1CC[C@@H]1[C@@H]2CC[C@]2(C)[C@@H](O)CC[C@@H]12	-1
C[C@]12CC[C@@H](O)C[C@@H]1CC[C@@H]1[C@@H]2[C@@H](O)C[C@@]2(C)[C@H]1CC[C@]2(O)C(=O)CO [5alpha-Tetrahydrocortisol]	1
C[C@]12CC[C@@H]3c4ccc(O)cc4CC[C@H]3[C@@H]1CC[C@@H]2O	-1
C[C@]12CCC(=O)C[C@@H]1CC[C@@H]1[C@@H]2CC[C@]2(C)[C@@H](O)CC[C@@H]12 [DHT, dihydroxy testosterone (DHT)]	-1
